- Test system: MCF10A
- ASSAY_NAME: one-nucleolus phenotype percent effect (relative to siNT 0% and siNOL11 100%); higher = more cells with one nucleolus (ribosome biogenesis inhibition)
- ASSAY_CONTEXT: 20 nM; 72 h
OBSERVATION_TYPE: one-nucleolus phenotype percent effect (%)
Respond with the bare value in %.

>>> observed_result("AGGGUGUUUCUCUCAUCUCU [hsa-miR-609]")
-18.6
>>> observed_result("AACAUUCAUUGUUGUCGGUGGGU [hsa-miR-181d]")
-6.07
>>> observed_result("GGAUAUCAUCAUAUACUGUAAG [hsa-miR-144-5p]")
-0.41
>>> observed_result("CGGAUGAGCAAAGAAAGUGGUU [hsa-miR-1255b-5p]")
-12.5
>>> observed_result("UGGGAUGAGGGAUUGAAGUGGA [hsa-miR-5187-5p]")
-17.7

The measured one-nucleolus phenotype percent effect associated with UCUCACUGUAGCCUCGAACCCC [hsa-miR-1304-3p] reads -27.3

The measured one-nucleolus phenotype percent effect associated with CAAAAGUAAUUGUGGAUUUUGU [hsa-miR-548n] reads -23.6

The measured one-nucleolus phenotype percent effect associated with AUCCUUGCUAUCUGGGUGCUA [hsa-miR-502-5p] reads 8.98

The measured one-nucleolus phenotype percent effect associated with UGCCCUAAAUGCCCCUUCUGGC [hsa-miR-18b-3p] reads -2.3

The measured values listed here are drawn from the supplement of paper PMC10899765.
